study-system: T1, human ILT3 (LILRB4) on CHO cells (human, UniProt Q8NHJ6 24-443)
T1 construct: also called CHO ILT3 cell line
T1 sequence (Q8NHJ6 other isoform, or with tags, fused parts or gaps): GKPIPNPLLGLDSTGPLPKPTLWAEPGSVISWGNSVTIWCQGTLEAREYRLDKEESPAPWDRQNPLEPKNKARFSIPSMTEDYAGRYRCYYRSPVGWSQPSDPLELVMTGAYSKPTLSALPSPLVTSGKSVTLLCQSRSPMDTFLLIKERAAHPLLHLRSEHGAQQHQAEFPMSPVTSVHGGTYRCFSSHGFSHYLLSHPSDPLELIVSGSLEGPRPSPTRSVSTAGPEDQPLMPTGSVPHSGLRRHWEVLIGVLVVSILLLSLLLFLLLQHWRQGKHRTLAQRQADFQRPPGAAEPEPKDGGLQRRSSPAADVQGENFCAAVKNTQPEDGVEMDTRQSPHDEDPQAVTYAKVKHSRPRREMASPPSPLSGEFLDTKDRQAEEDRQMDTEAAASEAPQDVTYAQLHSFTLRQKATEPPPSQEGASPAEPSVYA
test-protocol: flow cytometry, CHO transfectants
property: binding result

binder	property	observed
18E1 (antibody, human IgG1, V domains shown) VH: QVQLQQSGAELVKPGASVRLSCKASGYTFTAHTIHWVKQRSGQGLEWIGWLYPGSGSIKYNEKFKDKATLTADKSSSTVYMELSRLTSEDSAVYFCARHTNWDFDYWGQGTTLTVSS VL: NIVLTQSPASLAVSLGQRATISCKASQSVDYGGASYMNWYQQKPGQPPKLLIYAASNLESGIPARFSGSGSGTDLTLNIHPVEEEDAAMYYCQQSNEEPWTFGGGTKLEIK	binding result	no binding
12D12 (antibody, human IgG1, V domains shown) VH: QVQLQQPGAELVKPGASVRMSCKASGYTFTSYWVHWVKQRPGQGLEWIGVIDPSDSYTSYNQNFKGKATLTVDTSSKTAYIHLSSLTSEDSAVYFCARGERYDGDYFAMDYWGQGTSVTVSS VL: DIVMTQSPASLSVSVGETVTITCRASENIYSNLAWYQQKQGKSPQLLVYAATNLADGVPSRFSGSRSGTQYSLKINSLQSEDFGTYYCQHFWNTPRTFGGGTKLEIK	binding result	no binding
26D8 (antibody, human IgG1, V domains shown) VH: QVQLQQSGAELVKPGASVKLSCKASGYTFTEHTIHWIKQRSGQGLEWIGWFYPGSGSMKYNEKFKDKATLTADKSSSTVYMELTRLTSEDSAVYFCARHTNWDFDYWGQGTTLTVSS VL: DIVLTQSPASLAVSLGQRATISCKASQSVDYGGDSYMNWYQQKPGQPPKLLIYAASNLESGIPARFSGSGSGTDLTLNIHPVEEDDAAMYYCQQSNEEPWTFGGGTKLEIK	binding result	no binding
